- measurement_protocol: MRP1 drug-resistance reversers in H69AR cells – cell-based, doxorubicin co-treatment, pilot screen (AID 601)
- settings: H69AR cells + 2 uM doxorubicin, CellTiter-Glo, 72 h; measured here: viability with 2 uM doxorubicin; at 10 µM; stronger effect = lower value
Decision: viability beneath 90% gives True; viability meeting or exceeding 90% gives False.

INSERT INTO assay_data (compound_structure_string, assigned_class) VALUES
  ('CCCCN(CCCC)CCn1cnc2c([nH]c3ccc(OC)cc32)c1=O', 'False'),
  ('CCOCCn1c(CN2CCN(CC)CC2)nc2c1c(=O)n(C)c(=O)n2C', 'True'),
  ('COc1ccc(CCNc2oc(COc3ccccc3Cl)nc2C#N)cc1OC', 'False'),
  ('CCOC(=O)c1sc2nc(NC(=O)C3CCCCC3)sc2c1C', 'True'),
  ('O=C(NCCSc1c[nH]c2ccccc12)c1ccc(Br)o1', 'True'),
  ('O=C(CSc1ncnc2nc[nH]c12)c1ccc(Cl)cc1', 'False');

---

- measurement_protocol: yeast transport mutant growth inhibition pilot in 384-well plates, post-Golgi transport modulator project (AID 636)
- settings: absorbance 615 nm, about 18 h, stronger effect = higher value
property: inhibition (%)

INSERT INTO assay_data (compound, measured) VALUES
  ('Cc1nnc(NC(=O)c2ccco2)s1', -4.13),
  ('O=C(c1ccc(NS(=O)(=O)c2cccs2)cc1)N1CCCCC1', -2.63),
  ('CC1(C)Oc2ccc3ccc(=O)oc3c2C(N2CCCCC2)C1O (stereo unspecified)', -0.52),
  ('CC1Cc2ccccc2N1C(=O)C12CCC(C)(C(=O)C1)C2(C)C (stereo unspecified)', -5.47),
  ('CCOC(=O)C1=C(CS(=O)(=O)c2ccc(F)c(C)c2)NC(=O)NC1c1ccc(O)c(O)c1 (stereo unspecified)', -4.13),
  ('CC1Cc2nc(SCC(=O)N3CCCc4ccccc43)n(C)c(=O)c2S1 (stereo unspecified)', -4.27),
  ('CCCCCn1c(CN2CCN(C(=O)c3ccco3)CC2)nc2c1c(=O)n(C)c(=O)n2C', -5.6),
  ('COc1ccc(S(=O)(=O)N2Cc3ccccc3CC2C(=O)Nc2ccc(O)cc2)cc1OC (stereo unspecified)', -4.27),
  ('CCOC(=O)N1CCN(C(=O)CN(C2CCCCC2)S(=O)(=O)c2ccc(F)cc2)CC1', -6),
  ('CC(=O)Nc1nc(-c2ccccc2)nc(C)c1C(C)=O', 0.13),
  ('O=C(c1cccc(F)c1)N1CCc2ccccc21', -5.14),
  ('c1ccc(Cn2nnc3c(N4CCCCCC4)ncnc32)cc1', -5.87),
  ('Cc1cccc(Cc2c(C)nc3nc(SCC(=O)NCc4ccco4)nn3c2C)c1', -4.59),
  ('COC(=O)CN(c1ccc(OC)cc1)S(=O)(=O)c1ccc(OC)c(OC)c1', -0.78),
  ('COc1cccc(C2=NOC(C(=O)Nc3cc(C)nn3-c3ccccc3)C2)c1OC (stereo unspecified)', 2.31),
  ('CC(C)C(C(=O)Nc1ccc2c(c1)OCCO2)N1C(=O)c2ccccc2C1=O (stereo unspecified)', 0.77),
  ('O=C(CSc1nnc2ccccn12)c1ccccc1', -4.27),
  ('CC(C)c1nnc(NC(=O)Cc2cccs2)s1', -2.53),
  ('COC(=O)c1[nH]c2c(c1C)C(=O)CC(c1cc(OC)ccc1OC)C2 (stereo unspecified)', -6.8),
  ('COC(=O)c1ccc(-n2nnnc2SCc2nn[nH]n2)cc1', 3.21),
  ('Cc1ccc(CNC(=O)C2CCCN(S(=O)(=O)c3cnc[nH]3)C2)cc1 (stereo unspecified)', -2.13),
  ('COc1ccc(CNc2oc(-c3ccccc3)nc2C#N)cc1', 4.27),
  ('Cn1c(=O)oc2cc(S(=O)(=O)NC3CCN(Cc4ccccc4)CC3)ccc21', -0.51),
  ('Nc1cccc2c1C(=O)N(c1ccccc1)C2=O', -3.87),
  ('Cn1c(C(=O)NCCCN2CCN(c3ccc(F)cc3)CC2)cc2c(=O)n(C)c3ccccc3c21', -3.07),
  ('CCCn1c(=O)c(C(=O)NCc2ccccn2)c(O)c2ccccc21', 2.27),
  ('O=C(CCN1C(=O)c2ccccc2C1=O)NCCN1CCOCC1', 1.95),
  ('NC(=O)CSc1cn(CCNC(=O)c2cccs2)c2ccccc12', -4),
  ('CCCC(=O)NCCc1cc2c(C)ccc(C)c2[nH]c1=O', -5.6),
  ('O=C(Cc1cccs1)Nc1ccccc1NC(=O)Cc1cccs1', -1.15),
  ('O=C(c1cnc2n(c1=O)CCS2)N(C1CCCCC1)C1CCCCC1', -4.53),
  ('CCn1c(NC(=O)c2cccc(Cn3cc(Cl)cn3)c2)nc2ccccc21', -0.53),
  ('CC1=C(C(=O)OCc2ccccc2)C(c2ccco2)n2ncnc2N1 (stereo unspecified)', -2.95),
  ('CCCCOCCCNC(=O)c1ccc(NC(C)=O)cc1', 1.04),
  ('Cc1ccc(C)c(NC(=O)CSc2nnc(-c3ccccc3)o2)c1', -6.4),
  ('CC(C)NC(=O)c1ccc2c(c1)nnn2C', -4.05),
  ('CCOC(=O)c1[nH]c(C)c(C(=O)Nc2ccc(C)cc2C)c1C', -3.72),
  ('C=CCSc1nc2sc(C)c(C)c2c(=O)[nH]1', -5.87),
  ('O=C(c1sc2ccccc2c1Cl)N(Cc1cccs1)C1CCS(=O)(=O)C1 (stereo unspecified)', 1.07),
  ('CC1=C(C(=O)Nc2ccc(F)cc2)C(c2cccc(C)c2)n2nc(CCCO)nc2N1 (stereo unspecified)', -3.73),
  ('O=C(C1CCC(CNc2c(N3CCCCC3)c(=O)c2=O)CC1)N1CCc2ccccc2C1 (stereo unspecified)', -0.53),
  ('COc1ccc(S(=O)(=O)N2CCCC2C(=O)Nc2ccc(O)cc2)cc1 (stereo unspecified)', 0.13),
  ('N#CC1=C(N)Oc2cc(O)ccc2C1C1CCCCC1 (stereo unspecified)', -1.17),
  ('CCc1nn(CC(=O)NCCCN2CCc3ccccc3C2)c(=O)c2cc3sccc3n12', -3.46),
  ('CCC1CCCCN1C(=O)CSc1nnc(-c2ccc(OC)cc2)o1 (stereo unspecified)', -3.6),
  ('CCOC(=O)C(CC)n1nc(C)n2c(cc3sccc32)c1=O (stereo unspecified)', -5.87);
